MEASURED ON: MAGE-A11:PCF11 interaction (GST-MAGE-A11 MHD and FAM-PCF11_4) (Homo sapiens)
Construct: GST-MAGE-A11 MHD (human MAGE-A11 MHD amino acid 218-429); made in house; host or cells: E. coli BL21(DE3)
Sequence (P43364 218-429): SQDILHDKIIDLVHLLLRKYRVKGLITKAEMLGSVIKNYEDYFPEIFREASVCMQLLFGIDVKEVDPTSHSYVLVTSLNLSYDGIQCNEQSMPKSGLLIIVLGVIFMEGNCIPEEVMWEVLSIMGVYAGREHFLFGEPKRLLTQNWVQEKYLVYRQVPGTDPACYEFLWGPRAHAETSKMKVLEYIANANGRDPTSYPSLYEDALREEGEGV
ASSAY NOTES: TR-FRET dose response test of compounds for disruption of MAGE-A11:PCF11 binding
CONDITIONS USED: Dose response TR-FRET screening of nine scaffold groups against MAGE-A11:PCF11; read-out: consensus IC50
OBSERVED PROPERTY: pIC50
pIC50 (log units): -log10 of the concentration in mol/L.

Field request: pIC50 | item: COc1cc(Cc2ccc3c(NCCCNCc4cc(F)ccc4OC)ccnc3c2)cc(OC)c1
4.47

Field request: pIC50 | item: COc1ccc(F)cc1CNCCCNc1ccnc2cc(-c3ccc(C(C)(C)C)cc3)ccc12
5.34

Field request: pIC50 | item: CCC(CC)c1ccc2c(NCCCNCc3cccc(OC)c3O)ccnc2c1
5.00

Field request: pIC50 | item: CCOC(=O)N1CCN(Cc2ccc3c(c2)c2ccccc2n3CC)CC1
4.53

Field request: pIC50 | item: Cn1c(=O)c2[nH]c(-c3ccc(S(=O)(=O)O)cc3)nc2n(C)c1=O
4.66

Field request: pIC50 | item: COc1ccc(F)cc1CNCCCNc1ccnc2cc(C3CCCCC3)ccc12
4.62

Field request: pIC50 | item: Fc1ccc(-c2ccc3c(NCCCNCc4cccc5c4OCO5)ccnc3c2)cc1
4.60

Field request: pIC50 | item: Cc1cc(C)cc(NC2=C(N)C(=O)c3ccccc3C2=O)c1
4.26

Field request: pIC50 | item: Fc1ccc(Oc2ccc3c(NCCCNCc4cccc5c4OCO5)ccnc3c2)cc1
4.22

Field request: pIC50 | item: CCOc1ccc(N(C(C)=O)C2=C(N)C(=O)c3ccccc3C2=O)cc1
4.18

Field request: pIC50 | item: CC1CN(c2oc(-c3ccccc3F)nc2S(=O)(=O)c2ccc(F)cc2)CC(C)O1 (stereo not drawn)
4.56

Field request: pIC50 | item: COc1ccc(F)cc1CNCCCNc1ccnc2cc(Cc3ccccc3)ccc12
4.74

Field request: pIC50 | item: c1cc(CNCCCNc2ccnc3cc(-c4ccc5c(c4)OCO5)ccc23)c2c(c1)OCO2
4.52

Field request: pIC50 | item: Cc1cc(C)c(CNCCCNc2ccnc3cc(Cl)ccc23)c(C)c1
4.17

Field request: pIC50 | item: COc1ccc(F)cc1CNCCCNc1ccnc2cc(Cc3c(Cl)cccc3Cl)ccc12
4.91

Field request: pIC50 | item: COc1cccc(CNCCCNc2ccnc3cc(Cc4c(Cl)cccc4Cl)ccc23)c1O
4.86

Field request: pIC50 | item: COc1cccc(CNCCCNc2ccnc3cc(Oc4ccc(C(C)(C)C)cc4)ccc23)c1O
5.12

The measured values listed here are drawn from paper PMC7529893.
